Data origin: the supplement of paper PMC8671470

System: HEL
test: cell viability (% survival relative to DMSO control, bortezomib = 0%); higher = less cytotoxic
stated-conditions: 10000 nM; 72 h
Measured cell viability, listed per entry for reference.
Expressed in %, but write only the number.

Look over these answered cases.
                                   compound  value_unit  reported_measurement
0  NC(=O)c1ncn([C@@H]2O[C@H](CO)[C@@H](O)[C@H]2O)n1           %                   112
1  CC(Cc1ccc(O)c(O)c1)C(C)Cc1ccc(O)c(O)c1 (centres undefined)           %                  79.8
2      O=C1Nc2ccccc2/C1=C\NCCc1ccc(O)c(O)c1           %                  96.9
3         C=CCc1ccc2c(c1O)C(=O)c1ccccc1C2=O           %                   110
4                      Clc1ccc2c(c1Cl)CNCC2           %                  82.4
5               O=c1c2ccccc2[se]n1-c1ccccc1           %                  81.8

Memo: O=C(O)CCc1ccc(NCc2cccc(Oc3ccccc3)c2)cc1 , reported cell viability: 104

Memo: OCCN1CCN(CCCN2c3ccccc3Sc3ccc(Cl)cc32)CC1 , reported cell viability: 107

Memo: C#Cc1cnc(O)nc1O , reported cell viability: 106

Memo: N[C@](CCCCB(O)O)(CCN1CCCCC1)C(=O)O , reported cell viability: 95.4

* * *

System: LAMA-84
test: cell viability (% survival relative to DMSO control, bortezomib = 0%); higher = less cytotoxic
stated-conditions: 10000 nM; 72 h
readout-name: cell viability (%)
Expressed in %, but write only the number.

Look over these answered cases.
>>> print(df.to_string())
                                   molecule  reported_measurement
0      C1CCc2nnc(C34CC5CC(CC(C5)C3)C4)n2CC1                   101
1  Cc1c(-c2ccccc2)oc2c(C(=O)OCCN3CCCCC3)cccc2c1=O.Cl [Flavoxate]                   101
2                c1ccc2c(c1)OCC(=C1NCCN1)O2                    93
3  O=C(O)c1cc2sccc2[nH]1 [4H-thieno[3,2-b]pyrrole-5-carboxylic acid]                   105
4  Nc1ccn([C@@H]2O[C@H](CO)[C@@H](O)[C@@H]2O)c(=O)n1                     5
5    Cc1coc2c1C(=O)C(=O)c1c-2ccc2c(C)cccc12                  95.4
6           O=C(O)C(Cl)Cl [Dichloroacetate]                  99.3
7  C1CCC(C(CC2CCCCN2)C2CCCCC2)CC1.O=C(O)/C=C\C(=O)O (stereo unspecified)                  12.3

Memo: Oc1cc(Cl)ccc1Oc1ccc(Cl)cc1Cl , reported cell viability: 66.5

Memo: O=C1Oc2ccccc2C(=O)C1CC1C(=O)Oc2ccccc2C1=O (stereo unspecified) , reported cell viability: 105

Memo: O=C(O)c1nn(Cc2ccc(Cl)cc2Cl)c2ccccc12 , reported cell viability: 102

Memo: O=C(O)C(S)=Cc1c[nH]c2ccc(F)cc12 , reported cell viability: 102

Memo: OCCN1CCN(CCCN2c3ccccc3Sc3ccc(Cl)cc32)CC1 , reported cell viability: 47.6

Memo: O=P(O)(O)C(O)(Cn1ccnc1)P(=O)(O)O , reported cell viability: 99.2

Memo: CC(C(=O)O)C(=O)O [Methylmalonate] , reported cell viability: 90.3

Memo: Clc1ccc(COC(Cn2ccnc2)c2ccc(Cl)cc2Cl)cc1 (stereo unspecified) , reported cell viability: 58.1
